Origin of values: patent US5399566A

- system tested: contraction response to angiotensin II at the isolated thoracic aorta of rabbit (Oryctolagus cuniculus)
- Construct: A strip of thoracic aorta of a male rabbit (2.5-3.0 kg) was prepared by the usual method; from tissue; host or cells: rabbit thoracic aorta strip
- Sequence (P34976 whole entry): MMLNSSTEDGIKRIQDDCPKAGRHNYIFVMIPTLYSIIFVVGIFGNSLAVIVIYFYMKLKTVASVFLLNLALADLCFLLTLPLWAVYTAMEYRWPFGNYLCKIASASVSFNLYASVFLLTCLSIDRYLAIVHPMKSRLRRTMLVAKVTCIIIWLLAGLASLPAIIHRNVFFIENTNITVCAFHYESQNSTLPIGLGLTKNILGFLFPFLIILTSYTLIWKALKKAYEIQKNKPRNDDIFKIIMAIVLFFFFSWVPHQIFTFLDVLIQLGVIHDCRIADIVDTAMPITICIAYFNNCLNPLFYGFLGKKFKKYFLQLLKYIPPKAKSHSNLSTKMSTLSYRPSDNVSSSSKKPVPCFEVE
- experimental details: In vitro angiotensin II antagonism, isolated rabbit thoracic aorta (Schild pA2)
- Type: cell-based
- conditions used: Schild plot
Documented Kb across a set of compounds
Lab book: enter the figure in nM, no units written.

Query :: Would you mind telling me what Kb value was observed for `COc1c(OCc2ccc(-c3ccccc3-c3nnn[nH]3)cc2)cc(C)nc1C` ?
Result :: 6.31

Query :: Which Kb value belongs to `Cc1cc(OCc2ccc(-c3ccccc3-c3nnn[nH]3)cc2)c(C(=O)N(C)C)c(C)n1` ?
Result :: 3.02

Query :: Tell me the measured Kb of `CCOC(=O)c1c(OCc2ccc(-c3ccccc3-c3nnn[nH]3)cc2)cc(C)nc1CC` , please.
Result :: 6.76

###

- system tested: contraction response to angiotensin II at the isolated thoracic aorta of rabbit (Oryctolagus cuniculus)
- Construct: A strip of thoracic aorta of a male rabbit (2.5-3.0 kg) was prepared by the usual method; from tissue; host or cells: rabbit thoracic aorta strip
- experimental details: In vitro angiotensin II antagonism, isolated rabbit thoracic aorta (Schild pA2)
- Format: cell-based
- conditions used: Schild plot
Kindly apply the following: yes if Kb is less than 6 nM, no in every other case.

Take a look at these entries with their results.
INSERT INTO results (molecule, class) VALUES
  ('CCc1cc(OCc2ccc(-c3ccccc3C(=O)O)cc2)cc(CC)n1 [Example 81]', 'no'),
  ('CCc1cc(OCc2ccc(-c3ccccc3-c3nnn[nH]3)cc2)cc(C)n1 [Example 3]', 'yes');

Next up:
Query :: Would you kindly verify if Kb of CC(=O)OCc1c(OCc2ccc(-c3ccccc3-c3nnn[nH]3)cc2)cc(C)nc1C [Example 67] is strictly less than 6 nM?
Result :: yes
